Reference source: patent US10414797B2

# test system: MMP-1 (Homo sapiens (Human), UniProt P03956)
# Sequence (P03956 100-269): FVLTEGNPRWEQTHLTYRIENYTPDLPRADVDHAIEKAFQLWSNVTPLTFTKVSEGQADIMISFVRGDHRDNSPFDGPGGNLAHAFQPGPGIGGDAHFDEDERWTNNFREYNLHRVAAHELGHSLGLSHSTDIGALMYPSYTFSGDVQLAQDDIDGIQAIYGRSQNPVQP
# protocol text: MMP-1 inhibition assay (fluorogenic peptide substrate)
# condition description: recombinant MMP-1 5.52 nM, Mca-PLGL-Dpa-AR-NH2 10 μM, 4 hours at room temperature; tested at 1, 10, 100 and 200 μM
Where a SMILES comes first, the peptide text is derived from it. [ ]: non-standard residue; d: D form. The star is where a group is joined. ξ: configuration not given here. NMeW = CN[C@@H](Cc1c[nH]c2ccccc12)C(=O)O; Benzoyl(3,5-F2) = O=C(c1cc(F)cc(F)c1)*; NMeIle(3ξ) = CCC(C)[C@H](NC)C(=O)O; NMeL = CN[C@@H](CC(C)C)C(=O)O; Dab = NCC[C@H](N)C(=O)O; Hexanoyl = CCCCCC(=O)*; Butyryl = CCCC(=O)*; Bz = O=C(c1ccccc1)*; NHOH = ON*
Please provide measured IC50 for the entries that follow.
Numbers only, in µM.

Recorded results for 10 compounds are shown here.
CCCC(=O)N(C)[C@@H](Cc1c[nH]c2ccccc12)C(=O)N(C)[C@@H](CC(C)C)C(=O)N1CCC[C@H]1C(=O)N(C)[C@H](C(=O)N[C@@H](CCNC(=O)c1cc(F)cc(F)c1)C(=O)NO)C(C)CC (some centres unmarked) [Example 14] (Butyryl-[NMeW][NMeL]P[NMeIle(3ξ)][Dab](Benzoyl(3,5-F2))-{NHOH})
6.07
CCC(C)[C@@H](C(=O)N[C@@H](CCNC(=O)c1cc(F)cc(F)c1)C(=O)NO)N(C)C(=O)[C@@H]1CCCN1C(=O)CCN(C)C(C)=O (some centres unmarked)
200
CCCC(CCC)C(=O)N1CCC[C@H]1C(=O)N(C)[C@H](C(=O)N[C@@H](CCNC(=O)c1cc(F)cc(F)c1)C(=O)NO)C(C)CC (some centres unmarked)
3.65
CC(=O)N1CCC[C@H]1C(=O)N[C@@H](CCC(N)=O)C(=O)N[C@@H](Cc1c[nH]c2ccccc12)C(=O)NO [Example C17, reference compound] (Ac-Pro-Gln-Trp-{NHOH})
6.1
CCC(C)[C@@H](C(=O)N[C@@H](CCNC(=O)c1cc(F)cc(F)c1)C(=O)NO)N(C)C(=O)[C@@H]1CC(F)(F)CN1C(=O)CCCOc1ccccc1 (some centres unmarked)
6.61
CCCCCC(=O)N1CCC[C@H]1C(=O)N(C)[C@H](C(=O)N[C@@H](CCNC(=O)c1cc(F)cc(F)c1)C(=O)NO)C(C)CC (some centres unmarked)
6.82
CCCCCC(=O)N1CCC[C@H]1C(=O)N(C)[C@H](C(=O)N[C@@H](CCNC(=O)c1ccccc1)C(=O)NO)C(C)CC (some centres unmarked) [Example 15] (Hexanoyl-Pro-[NMeIle(3ξ)]-[Dab](Bz)-{NHOH})
10.8
CCCCCC(=O)N1CC(F)(F)C[C@H]1C(=O)N(C)[C@H](C(=O)N[C@@H](CCNC(=O)c1cc(F)cc(F)c1)C(=O)NO)C(C)CC (some centres unmarked)
24.7
CCCCCCCC(=O)N1CCC[C@H]1C(=O)N(C)[C@H](C(=O)N[C@@H](CCNC(=O)c1cc(F)cc(F)c1)C(=O)NO)C(C)CC (some centres unmarked)
25.6
CCC(C)[C@@H](C(=O)N[C@@H](CCNC(=O)c1cc(F)cc(F)c1)C(=O)NO)N(C)C(=O)[C@@H]1CCCN1C(=O)CC(C)C (some centres unmarked)
6.68

Now examine the next entry.
(Q) Endpoint output: IC50 of CCC(C)[C@@H](C(=O)N[C@@H](CCNC(=O)c1cc(F)cc(F)c1)C(=O)NO)N(C)C(=O)[C@@H]1CCCN1C(C)=O (some centres unmarked) . Value?
(A) 4.94
